target: T1, purified ALK protein (BLitz, Table 20) (Homo sapiens (Human), UniProt Q9UM73 19-1038, limits assumed); experiment: BLI (BLitz), mAb on Protein A tip, purified ALK in solution
T1 construct: also called purified ALK proteins
T1 sequence (Q9UM73 19-1038 limits assumed): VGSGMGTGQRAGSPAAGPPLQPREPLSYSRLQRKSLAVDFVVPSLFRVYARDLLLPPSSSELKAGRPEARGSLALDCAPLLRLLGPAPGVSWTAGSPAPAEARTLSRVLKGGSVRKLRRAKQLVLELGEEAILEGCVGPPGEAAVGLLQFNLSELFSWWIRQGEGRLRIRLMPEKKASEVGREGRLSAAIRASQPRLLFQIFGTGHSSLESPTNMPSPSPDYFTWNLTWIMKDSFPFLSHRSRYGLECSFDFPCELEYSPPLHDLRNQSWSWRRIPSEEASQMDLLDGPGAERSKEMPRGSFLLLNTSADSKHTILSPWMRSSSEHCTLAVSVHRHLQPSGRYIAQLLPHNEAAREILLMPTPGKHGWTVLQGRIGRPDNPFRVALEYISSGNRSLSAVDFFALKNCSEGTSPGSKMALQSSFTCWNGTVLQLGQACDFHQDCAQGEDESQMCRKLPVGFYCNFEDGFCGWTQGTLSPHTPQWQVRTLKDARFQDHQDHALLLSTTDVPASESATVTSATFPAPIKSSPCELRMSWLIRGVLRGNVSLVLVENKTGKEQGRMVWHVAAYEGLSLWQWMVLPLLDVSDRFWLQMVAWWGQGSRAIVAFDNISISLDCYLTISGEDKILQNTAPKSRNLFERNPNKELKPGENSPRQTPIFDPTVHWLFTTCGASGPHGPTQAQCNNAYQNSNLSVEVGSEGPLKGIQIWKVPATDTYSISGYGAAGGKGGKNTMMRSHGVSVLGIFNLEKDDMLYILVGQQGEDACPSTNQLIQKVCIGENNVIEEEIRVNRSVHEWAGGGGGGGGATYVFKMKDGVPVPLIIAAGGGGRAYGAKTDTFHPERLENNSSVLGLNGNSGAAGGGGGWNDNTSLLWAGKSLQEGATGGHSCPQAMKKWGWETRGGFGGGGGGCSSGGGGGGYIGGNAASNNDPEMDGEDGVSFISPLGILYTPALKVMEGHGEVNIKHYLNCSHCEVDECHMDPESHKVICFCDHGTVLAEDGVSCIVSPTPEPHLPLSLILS
pKd: −log10 of the molar value.
observable: pKd

- Ab366 (antibody, V domains shown, humanized) VH: EVQLVQSGAEVKKPGTSVKLSCKASGYTFTSYWMHWVRQARGQRLEWIGYIKPSSGYTKYAQKFQERVTLTADKSTSTAYMELSSLRSEDTAVYYCARDYYGSSSWFAYWGQGTLVTVSS VL: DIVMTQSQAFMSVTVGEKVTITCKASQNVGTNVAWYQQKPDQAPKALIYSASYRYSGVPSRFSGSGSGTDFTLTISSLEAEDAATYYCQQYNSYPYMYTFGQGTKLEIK: 6.66
- Ab358 (antibody, V domains shown, humanized) VH: EVQLVQSGAEVKKPGASVKLSCKASGYTFTSYWMHWVRQAPGQGLEWIGYIKPSSGYTKYAQKLQGRVTLTADKSTSTAYMELRSLRSDDTAVYYCARDYYGSSSWFAYWGQGTLVTVSS VL: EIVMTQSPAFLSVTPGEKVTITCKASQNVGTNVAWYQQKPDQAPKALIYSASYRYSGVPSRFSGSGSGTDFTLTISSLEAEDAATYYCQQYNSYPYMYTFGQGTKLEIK: 6.93
